# target_or_test_system: T1, HCV Core 134-171-TT Peptide (hepatitis C virus (HCV-1 numbering) …)
# T1 construct: also called ALRZ-9 peptide
# procedure_summary: SPR, captured mAb, peptide analyte
koff vs 0.0005 s⁻¹: at or above is label 1, below is label 0.

The following binders have reported results that may help.
HCV 208B-589 (antibody, V domains shown) VH: QVQLQQSGAGLAKPGASVKMSCKASGYTFTANKMHWAKQRPGQGLEWIGYIDPSSGYTEYNHKIQDKATLTADTSSSTAYMQLSSLTFEDSAVYYCTNFAYWGQGTLVTVSA VL: DIVMTQTPLTLSVTIGQPASISCKSSQSLLFTNGKTYLNWFLQRPGQSPKRLIYLLSKLDSGVPDRFSGSGSGTDFTLKISRVEAEDLGVYYCLQSTYFPLTFGAGTKLELKR	label 1
HCV 208B-560 (antibody, V domains shown) VH: EVQLQQSGPELEKPGASVKISCKTSGYTFTEYAMHWVKQSHGMSLEWIGGINPSNGNAIYNQIFKDKATLTVDRSSSTAYMGLRSLTFGDSGVYFCVRRQLDFFDYWGQGASLTVSS VL: DIVVTQSPASLAVSLGQRATISCRASQSVSTSRYSYLHWYQQKPGQPPKLLIKYASNLESGVPARFSGSGSGTDFTLNIHPVGEEDTATYYCQHSWEFPFTFGSGTKLEIKR	label 0

Query string: Decide: koff of HCV 208A-557 (antibody, V domains shown) VH: QGQMQQSGAELVKPGASVKLSCKTSGFTFSSSYISWLKQKPGQSLEWIAWIYAGTGNTNYNQKFTDKAQLTVDTSSSTAYMQLSSLTTEDSAIYYCAISGTGFTYWGQGTLVTVSA VL: DIALTQSPASLAVSLGQRATISCRASQSVSTSRYSYMHWYQQKPGQPPELLIKYASNLESGVPARFSGSGSGTDFTLNIHPVGEEDTATYYCQHSWDFPFTFGSGTKLEIKR >= 0.0005 s⁻¹?
Result string: label 0

Query string: Decide: koff of HCV 208B-612 (antibody, V domains shown) VH: EVQLQQSGPELVKPGASVKMSCKASGYRFTSYVMHWVRQKPGQGLEWIGYIDPHNDDTKYSEKFRGKATLTSDKSSTTAYMELSSLTSEDSAVYYCVRYSYDRDYSPMDYWGQGTSVTVSS VL: QIVLTQSPTLMSASPGEKVTMTCSASSTVTYIYWYQQKPGSSPRLWMYDTFNLVSGVPARFSGSRSGTSYFLTISSMEGEDAATYYCQQYSDSPYTFGGGTKLEIKR >= 0.0005 s⁻¹?
Result string: label 0

Query string: Decide: koff of HCV 208B-1024 (antibody, V domains shown) VH: EVQLVESGGDLVKPGGSLKLSCAASGFTFSNYGMSWVRQTPDKRLEWVATISSGGSYSYYPDSVKGRFTISRDNAKNILYLQMSSLKSEDTAMYYCASLYYGYGDYWGQGTAFTVSS VL: DVLMTQTPLSLPVSLGDQASISCRSSQSIVHSNGNTYLEWYLQKLGQSPKLLIYRVSNRFSGVPDRFSGSGSGTDFTLKISRVEAEDLGVYYCFQGSHVPWTFGGGTKLEIKR >= 0.0005 s⁻¹?
Result string: label 1
